Origin of values: paper PMC7721954

Known Biodistribution Muscle of a selection of molecules
Tested on: LNCaP tumor-bearing male CB-17 SCID mice
Assay: Biodistribution 1 h p.i.
Type: in vivo
Just the number in % ID/g, nothing appended.

Below, each entry is followed by its recorded Biodistribution Muscle result.
• CC(C)(C)[Si]([18F])(c1ccc(C(=O)NC[C@H](NC(=O)CC[C@@H](C(=O)O)N2CCN(CC(=O)[O-])CCN(CC(=O)[O-])CCN(CC(=O)[O-])CC2)C(=O)N[C@H](CCCCNC(=O)CCC(=O)NCCC[C@@H](NC(=O)CC[C@H](NC(=O)N[C@@H](CCC(=O)O)C(=O)O)C(=O)O)C(=O)O)C(=O)O)cc1)C(C)(C)C.[Ga+3] [[^18F, ^natGa]rhPSMA-7.4] = 0.31
• CC(C)(C)[Si]([18F])(c1ccc(C(=O)NC[C@@H](NC(=O)CC[C@H](C(=O)O)N2CCN(CC(=O)[O-])CCN(CC(=O)[O-])CCN(CC(=O)[O-])CC2)C(=O)N[C@H](CCCCNC(=O)CCC(=O)NCCC[C@@H](NC(=O)CC[C@H](NC(=O)N[C@@H](CCC(=O)O)C(=O)O)C(=O)O)C(=O)O)C(=O)O)cc1)C(C)(C)C.[Ga+3] [[^18F, ^natGa]rhPSMA-7.1] = 0.32
• CC(C)(C)[Si]([18F])(c1ccc(C(=O)NC[C@H](NC(=O)CC[C@H](C(=O)O)N2CCN(CC(=O)[O-])CCN(CC(=O)[O-])CCN(CC(=O)[O-])CC2)C(=O)N[C@H](CCCCNC(=O)CCC(=O)NCCC[C@@H](NC(=O)CC[C@H](NC(=O)N[C@@H](CCC(=O)O)C(=O)O)C(=O)O)C(=O)O)C(=O)O)cc1)C(C)(C)C.[Ga+3] [[^18F, ^natGa]rhPSMA-7.2] = 0.13

Let us examine a further case.
Enter reported Biodistribution Muscle observed with LNCaP tumor-bearing male CB-17 SCID mice for CC(C)(C)[Si]([18F])(c1ccc(C(=O)NC[C@@H](NC(=O)CC[C@@H](C(=O)O)N2CCN(CC(=O)[O-])CCN(CC(=O)[O-])CCN(CC(=O)[O-])CC2)C(=O)N[C@H](CCCCNC(=O)CCC(=O)NCCC[C@@H](NC(=O)CC[C@H](NC(=O)N[C@@H](CCC(=O)O)C(=O)O)C(=O)O)C(=O)O)C(=O)O)cc1)C(C)(C)C.[Ga+3] [[^18F, ^natGa]rhPSMA-7.3] 0.33

---

Tested on: LNCaP tumor-bearing male CB-17 SCID mice
Assay: Biodistribution 1 h p.i.
Type: in vivo
measure: Biodistribution Spleen (% ID/g)
Report the figure in % ID/g without appending any unit label.

Param item = CC(C)(C)[Si]([18F])(c1ccc(C(=O)NC[C@H](NC(=O)CC[C@H](C(=O)O)N2CCN(CC(=O)[O-])CCN(CC(=O)[O-])CCN(CC(=O)[O-])CC2)C(=O)N[C@H](CCCCNC(=O)CCC(=O)NCCC[C@@H](NC(=O)CC[C@H](NC(=O)N[C@@H](CCC(=O)O)C(=O)O)C(=O)O)C(=O)O)C(=O)O)cc1)C(C)(C)C.[Ga+3] [[^18F, ^natGa]rhPSMA-7.2] ; retrieve measured Biodistribution Spleen. 10.1
